B1: TPR 5TU (parent)
chain: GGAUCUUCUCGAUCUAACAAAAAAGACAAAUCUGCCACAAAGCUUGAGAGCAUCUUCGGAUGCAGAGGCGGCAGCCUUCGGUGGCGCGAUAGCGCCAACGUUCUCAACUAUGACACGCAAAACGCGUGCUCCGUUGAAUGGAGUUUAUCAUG

Variants of: B1
Experiment: polymerase ribozyme fitness, log enrichment relative to wild type (log ratio); higher = more active; in vitro selection for triplet polymerase activity
Variants at the floor of the assay were thinned out.
PROPERTY MEASURED: polymerase ribozyme fitness (log ratio)

A selection of reference data follows.
>>> df
                               variant_name  measured_result
0  A40C G59C C63A G65U C87A C95U C125A G126U           ≤ -4.2
1                 A28C U33G G50A C95A U134A           ≤ -4.2
2        A3U A12G C43U C54U G71U C79A A120C           ≤ -4.2

// input: 3 variants below; output: polymerase ribozyme fitness (log ratio) for each
1. C10A A41C C76A A91U C96G A121C U127G
2. A29U G42U G84U C114A
3. C75U A107G A142G

["≤ -4.2", "≤ -4.2", "≤ -4.2"]

Source: the RNAGym collection of RNA variant scans (doi:10.1073/pnas.2313332121)
